# system.name: human Nav1.5 (Homo sapiens (Human), UniProt Q14524)
# Sequence (Q14524 whole entry): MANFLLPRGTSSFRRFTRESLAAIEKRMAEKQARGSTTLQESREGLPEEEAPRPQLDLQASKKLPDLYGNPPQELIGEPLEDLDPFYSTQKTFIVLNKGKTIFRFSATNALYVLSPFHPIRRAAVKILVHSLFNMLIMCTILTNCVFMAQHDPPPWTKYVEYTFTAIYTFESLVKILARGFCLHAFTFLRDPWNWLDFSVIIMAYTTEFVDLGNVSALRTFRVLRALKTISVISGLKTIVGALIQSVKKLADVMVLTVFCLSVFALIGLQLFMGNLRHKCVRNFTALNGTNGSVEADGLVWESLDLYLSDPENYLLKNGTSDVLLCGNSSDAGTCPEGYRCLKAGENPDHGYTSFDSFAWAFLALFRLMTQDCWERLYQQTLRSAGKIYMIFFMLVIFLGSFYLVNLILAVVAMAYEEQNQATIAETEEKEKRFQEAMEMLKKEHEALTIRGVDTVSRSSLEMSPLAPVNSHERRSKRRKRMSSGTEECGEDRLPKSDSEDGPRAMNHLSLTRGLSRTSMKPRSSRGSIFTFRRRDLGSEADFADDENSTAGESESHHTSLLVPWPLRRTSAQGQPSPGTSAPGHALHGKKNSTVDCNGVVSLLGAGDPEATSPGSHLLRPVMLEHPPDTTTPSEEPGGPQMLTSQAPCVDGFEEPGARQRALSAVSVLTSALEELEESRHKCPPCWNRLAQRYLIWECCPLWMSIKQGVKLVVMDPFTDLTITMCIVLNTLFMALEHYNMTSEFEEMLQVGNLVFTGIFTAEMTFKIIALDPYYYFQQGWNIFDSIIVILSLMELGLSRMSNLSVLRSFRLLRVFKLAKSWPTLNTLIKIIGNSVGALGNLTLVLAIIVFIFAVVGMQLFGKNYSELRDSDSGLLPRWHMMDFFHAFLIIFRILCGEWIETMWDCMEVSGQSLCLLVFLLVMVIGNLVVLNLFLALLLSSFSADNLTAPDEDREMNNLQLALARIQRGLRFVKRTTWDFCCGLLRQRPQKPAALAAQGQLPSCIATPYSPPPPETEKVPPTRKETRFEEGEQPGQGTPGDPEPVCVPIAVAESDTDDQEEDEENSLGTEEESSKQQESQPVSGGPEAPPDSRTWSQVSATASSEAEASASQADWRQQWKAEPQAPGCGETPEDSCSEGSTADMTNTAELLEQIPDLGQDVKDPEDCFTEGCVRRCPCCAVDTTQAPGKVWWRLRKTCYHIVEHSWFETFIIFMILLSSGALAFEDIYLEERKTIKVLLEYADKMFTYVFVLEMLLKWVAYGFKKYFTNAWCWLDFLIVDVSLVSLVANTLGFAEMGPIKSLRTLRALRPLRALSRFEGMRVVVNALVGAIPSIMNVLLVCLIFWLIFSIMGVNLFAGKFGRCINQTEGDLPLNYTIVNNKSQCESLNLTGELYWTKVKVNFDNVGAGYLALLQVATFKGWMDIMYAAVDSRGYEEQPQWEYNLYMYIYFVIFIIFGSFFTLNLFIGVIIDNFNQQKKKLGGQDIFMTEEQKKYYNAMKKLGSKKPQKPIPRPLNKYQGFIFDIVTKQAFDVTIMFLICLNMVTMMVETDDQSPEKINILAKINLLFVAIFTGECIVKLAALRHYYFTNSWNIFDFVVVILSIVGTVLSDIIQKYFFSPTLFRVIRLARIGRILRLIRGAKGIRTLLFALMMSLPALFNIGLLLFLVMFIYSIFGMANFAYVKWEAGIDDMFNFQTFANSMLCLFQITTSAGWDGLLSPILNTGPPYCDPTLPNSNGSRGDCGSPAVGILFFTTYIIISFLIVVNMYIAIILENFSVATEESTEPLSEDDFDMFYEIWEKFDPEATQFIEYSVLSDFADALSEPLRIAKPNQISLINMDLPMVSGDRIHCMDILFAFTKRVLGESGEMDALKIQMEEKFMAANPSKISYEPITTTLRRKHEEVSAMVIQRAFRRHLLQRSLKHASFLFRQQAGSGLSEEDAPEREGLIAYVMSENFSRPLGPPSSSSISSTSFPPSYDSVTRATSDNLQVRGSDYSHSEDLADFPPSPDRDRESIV
# assay.name: Human Nav1.5 inhibitory activity evaluation (automated patch clamp QPatch16X, HEK293 cells stably expressing human Nav1.5)
# Type: cell-based
# test.parameters: human Nav1.5, automated patch clamp
property.name: IC50

- compound: "N#CC1(COCC2CCn3nc(C(=O)N[C@H]4COc5ccc(C(F)(F)F)cc5C4)cc3O2)CC1 (single isomer, unassigned) [554 (isomer A)]"
  system.name: "human Nav1.5 (Homo sapiens (Human), UniProt Q14524)"
  IC50: "≥ 3 µM"
- compound: "Cc1ccc2c(c1)C[C@@H](NC(=O)c1cc3n(n1)CC(CCNCC(F)(F)F)O3)CO2 (single isomer, unassigned) [228 (isomer A)]"
  system.name: "human Nav1.5 (Homo sapiens (Human), UniProt Q14524)"
  IC50: "≥ 3 µM"
- compound: "N#Cc1ccc2c(c1)C[C@@H](NC(=O)c1cc3n(n1)CC(CCCOCC(F)(F)F)O3)CO2 (single isomer, unassigned) [246 (isomer B)]"
  system.name: "human Nav1.5 (Homo sapiens (Human), UniProt Q14524)"
  IC50: "≥ 3 µM"
- compound: "N#Cc1ccc2c(c1)C[C@@H](NC(=O)c1cc3n(n1)CCC(CSCC(F)(F)F)O3)CO2 (some centres unmarked)"
  system.name: "human Nav1.5 (Homo sapiens (Human), UniProt Q14524)"
  IC50: "≥ 3 µM"
- compound: "O=C(N[C@H]1COc2ccc(CCOC(F)(F)F)cc2C1)c1cc2n(n1)CC(C(F)(F)F)O2 (some centres unmarked)"
  system.name: "human Nav1.5 (Homo sapiens (Human), UniProt Q14524)"
  IC50: "≥ 3 µM"
- compound: "O=C(N[C@H]1COc2ccc(Br)cc2C1)c1cc2n(n1)CCC(C(F)F)O2 (some centres unmarked)"
  system.name: "human Nav1.5 (Homo sapiens (Human), UniProt Q14524)"
  IC50: "≥ 3 µM"

Q: Return IC50 for the following compound: CCCC1CCn2nc(C(=O)N[C@H]3COc4ccc(Cl)cc4C3)cc2O1 (some centres unmarked)
A: 1 to 3 µM

Q: Fill in reported IC50 for this entry: O=C(N[C@H]1COc2ccc(-c3cscn3)cc2C1)c1cc2n(n1)CCC(COCC1CC1)O2 (some centres unmarked)
A: 1 to 3 µM

###

# system.name: human Nav1.5 (Homo sapiens (Human), UniProt Q14524)
# assay.name: Human Nav1.5 inhibitory activity evaluation (automated patch clamp QPatch16X, HEK293 cells stably expressing human Nav1.5)
# Type: cell-based
# test.parameters: HEK293 cells stably expressing human Nav1.5, automated patch clamp QPatch16X
pIC50: −log10 of the molar value.
Entries and their pIC50

Worked set:
- compound: "N#Cc1ccc2c(c1)C[C@@H](NC(=O)c1cc3n(n1)CCC(COC(F)(F)F)O3)CO2 (single isomer, unassigned) [134 (isomer B)]"
  pIC50: "≤ 5.52"
- compound: "O=C(N[C@H]1COc2ccc(-c3ccccn3)cc2C1)c1cc2n(n1)CCC(COCC1CC1)O2 (stereo partly shown) [Example 110]"
  pIC50: "≤ 5.52"
- compound: "O=C(NC1COc2cccc(Cl)c2C1)c1cn2c(n1)CCC(C(F)(F)F)C2 (stereo not shown)"
  pIC50: "≤ 5.52"
- compound: "O=C(N[C@H]1COc2ccc(CC(F)F)cc2C1)c1cc2n(n1)CCC(COCC1CC1)O2 (single isomer, unassigned) [109 (isomer A)]"
  pIC50: "5.52 to 6.00"
- compound: "O=C(N[C@H]1COc2ccc(Cl)cc2C1)c1cc2n(n1)CCC(COc1ccccn1)O2 (stereo partly shown)"
  pIC50: "> 6.00"
- compound: "CN1Cc2nc(C(=O)NC3COc4ccccc4C3)cn2CC1c1ccccc1 (stereo not shown)"
  pIC50: "> 6.00"
- compound: "CC1(COCC2CCn3nc(C(=O)N[C@H]4COc5ccc(C#N)cc5C4)cc3O2)CC1 (single isomer, unassigned) [113 (isomer B)]"
  pIC50: "> 6.00"
- compound: "CCC1CCn2nc(C(=O)N[C@H]3COc4ccc(C#N)cc4C3)cc2O1 (single isomer, unassigned) [Example 92 (isomer A)]"
  pIC50: "≤ 5.52"

Q: Fill in pIC50 for record O=C(N[C@H]1COc2ccc(-c3ccccn3)cc2C1)c1cc2n(n1)CCC(COCC(F)(F)F)O2 (single isomer, unassigned) [131 (isomer A)]
A: 5.52 to 6.00

Q: Output pIC50 of CN1Cc2nc(C(=O)N[C@H]3COc4cccc(F)c4C3)cn2CC1c1cccc(C(F)(F)F)n1 (stereo partly shown)
A: ≤ 5.52

Q: Please report the measured pIC50 for O=C(NC1COc2cccc(OC(F)(F)F)c2C1)c1cc2n(n1)CCC(c1ccccc1)O2 (stereo not shown)
A: ≤ 5.52

Q: In one line, give reported pIC50 of the entry O=C(N[C@H]1COc2ccc(CC(F)F)cc2C1)c1cc2n(n1)CCC(COC(F)(F)F)O2 (single isomer, unassigned) [136 (isomer B)] .
A: 5.52 to 6.00

Q: State, in one line, measured pIC50 of O=C(N[C@H]1COc2ccc(CC(F)F)cc2C1)c1cc2n(n1)CCC(COCC(F)(F)F)O2 (stereo partly shown) [Example 126]
A: 5.52 to 6.00

Q: Using the record for CN(C(=O)c1cn2c(n1)CCC(C(F)(F)F)C2)[C@H]1COc2ccc(Cl)cc2C1 (stereo partly shown) [Example 3] , state its measured pIC50.
A: 5.52 to 6.00

Q: Return pIC50 (reported value) for this compound: O=C(N[C@H]1COc2ccc(C(F)F)cc2C1)c1cn2c(n1)CCC(C(F)(F)F)C2 (single isomer, unassigned) [7 (isomer B)]
A: ≤ 5.52

Q: Give reported pIC50 value for O=C(N[C@H]1COc2ccc(C(F)F)cc2C1)c1cn2c(n1)CCC(C(F)(F)F)C2 (single isomer, unassigned) [7 (isomer A)]
A: 5.52 to 6.00

Q: Recall and state the measured pIC50 for O=C(N[C@H]1COc2ccc(Br)cc2C1)c1cc2n(n1)CCC(c1ccccc1F)O2 (stereo partly shown) .
A: > 6.00

Q: Please give measured pIC50 of the following entry: O=C(NCCc1cccc(C(F)(F)F)c1)c1nc2n(c1-c1ccccc1)CCCC2
A: ≤ 5.52

Q: // fetch pIC50 given entry CCC1CCn2nc(C(=O)N[C@H]3COc4ccc(C#N)cc4C3)cc2O1 (stereo partly shown) [Example 91]
A: ≤ 5.52

###

# system.name: human Nav1.7 (Homo sapiens (Human))
# Sequence (Q15858 whole entry): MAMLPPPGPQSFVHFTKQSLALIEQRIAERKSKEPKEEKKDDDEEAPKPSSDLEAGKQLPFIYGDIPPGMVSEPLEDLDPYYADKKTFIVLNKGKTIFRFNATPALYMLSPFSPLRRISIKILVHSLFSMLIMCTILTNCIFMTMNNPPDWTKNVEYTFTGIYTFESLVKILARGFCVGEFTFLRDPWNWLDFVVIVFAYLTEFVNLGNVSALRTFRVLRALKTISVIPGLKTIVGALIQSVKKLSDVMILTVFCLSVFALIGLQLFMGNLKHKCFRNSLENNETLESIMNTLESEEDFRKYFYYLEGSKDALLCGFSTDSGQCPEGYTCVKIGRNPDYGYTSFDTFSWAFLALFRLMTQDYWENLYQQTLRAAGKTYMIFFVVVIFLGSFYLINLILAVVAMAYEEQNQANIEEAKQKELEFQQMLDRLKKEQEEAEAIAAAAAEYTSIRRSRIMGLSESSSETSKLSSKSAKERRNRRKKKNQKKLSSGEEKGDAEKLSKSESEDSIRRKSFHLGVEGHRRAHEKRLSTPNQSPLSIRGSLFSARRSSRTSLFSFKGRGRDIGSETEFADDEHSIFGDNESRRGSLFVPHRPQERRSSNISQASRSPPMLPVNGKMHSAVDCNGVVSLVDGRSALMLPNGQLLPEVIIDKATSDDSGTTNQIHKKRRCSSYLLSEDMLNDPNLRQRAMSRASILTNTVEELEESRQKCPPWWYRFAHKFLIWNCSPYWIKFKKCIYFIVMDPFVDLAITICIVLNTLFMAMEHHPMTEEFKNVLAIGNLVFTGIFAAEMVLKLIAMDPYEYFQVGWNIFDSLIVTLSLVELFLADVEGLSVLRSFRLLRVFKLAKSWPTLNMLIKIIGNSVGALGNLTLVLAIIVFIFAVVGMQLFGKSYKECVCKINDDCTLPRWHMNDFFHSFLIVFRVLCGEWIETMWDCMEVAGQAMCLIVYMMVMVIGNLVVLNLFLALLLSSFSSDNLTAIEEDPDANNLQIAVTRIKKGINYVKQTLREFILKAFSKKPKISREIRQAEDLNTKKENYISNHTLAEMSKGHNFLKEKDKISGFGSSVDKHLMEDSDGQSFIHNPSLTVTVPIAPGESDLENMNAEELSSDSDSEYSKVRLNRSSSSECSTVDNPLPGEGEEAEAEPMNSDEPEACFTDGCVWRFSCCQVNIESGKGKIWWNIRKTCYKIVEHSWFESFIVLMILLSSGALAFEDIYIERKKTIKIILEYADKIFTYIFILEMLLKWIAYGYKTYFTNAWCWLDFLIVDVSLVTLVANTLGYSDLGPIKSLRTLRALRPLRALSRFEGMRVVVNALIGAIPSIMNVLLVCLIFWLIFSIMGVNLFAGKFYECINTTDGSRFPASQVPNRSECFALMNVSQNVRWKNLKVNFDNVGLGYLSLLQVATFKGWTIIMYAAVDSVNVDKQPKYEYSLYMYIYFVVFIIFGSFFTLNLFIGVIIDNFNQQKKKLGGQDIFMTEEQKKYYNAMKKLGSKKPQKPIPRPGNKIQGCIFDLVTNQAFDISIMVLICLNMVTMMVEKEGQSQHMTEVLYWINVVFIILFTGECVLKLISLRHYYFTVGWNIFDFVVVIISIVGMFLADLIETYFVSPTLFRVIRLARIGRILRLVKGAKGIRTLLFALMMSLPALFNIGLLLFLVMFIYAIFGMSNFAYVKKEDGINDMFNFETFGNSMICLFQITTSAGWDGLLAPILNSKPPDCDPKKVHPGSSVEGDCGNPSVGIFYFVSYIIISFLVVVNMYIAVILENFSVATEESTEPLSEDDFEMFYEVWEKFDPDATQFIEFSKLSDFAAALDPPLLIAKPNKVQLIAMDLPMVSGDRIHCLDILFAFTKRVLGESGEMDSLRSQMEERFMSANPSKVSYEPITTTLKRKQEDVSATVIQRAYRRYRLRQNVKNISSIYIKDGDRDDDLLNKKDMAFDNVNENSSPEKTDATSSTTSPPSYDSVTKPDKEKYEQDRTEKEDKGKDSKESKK
# Sequence (Q07699 19-218 partner): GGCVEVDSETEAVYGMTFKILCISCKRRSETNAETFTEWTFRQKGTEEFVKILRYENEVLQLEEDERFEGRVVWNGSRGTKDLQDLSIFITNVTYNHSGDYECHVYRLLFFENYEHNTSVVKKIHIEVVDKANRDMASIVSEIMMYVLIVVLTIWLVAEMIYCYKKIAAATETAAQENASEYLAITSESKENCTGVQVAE
# assay.name: Human Nav1.7 inhibitory activity evaluation (automated patch clamp QPatch16X, HEK293A cells stably expressing human Nav1.7 and human Navβ1)
# Assay type: cell-based
# test.parameters: human Nav1.7, automated patch clamp
pIC50: −log10 of the molar value.
property.name: pIC50

- compound: "Cn1cc(-c2ccc3c(c2)C[C@@H](NC(=O)c2cc4n(n2)CC(CCOC(F)F)O4)CO3)cn1 (some centres unmarked) [Example 220]"
  system.name: "human Nav1.7 (Homo sapiens (Human))"
  pIC50: "> 5.00"
- compound: "O=C(N[C@H]1COc2ccc(COCC(F)(F)F)cc2C1)c1cc2n(n1)CCC(CN1CC(F)(F)C1)O2 (some centres unmarked)"
  system.name: "human Nav1.7 (Homo sapiens (Human))"
  pIC50: "> 5.00"

Next item in the queue.
Q: Quickly give me recorded pIC50 for O=C(N[C@H]1COc2ccc(C(F)(F)F)cc2C1)c1nn2c(c1-c1ccccn1)COCC2
A: > 6.00

###

Recorded IC50 by entry
# system.name: human Nav1.5 (Homo sapiens (Human))
# assay.name: Human Nav1.5 inhibitory activity evaluation (automated patch clamp QPatch16X, HEK293 cells stably expressing human Nav1.5)
# Assay type: cell-based
# test.parameters: human Nav1.5, automated patch clamp

- compound: "Cn1ncc(-c2ccc3c(c2)C[C@@H](NC(=O)c2cc4n(n2)CCC(COCC2CC2)O4)CO3)n1 (stereo partly shown) [Example 429]"
  IC50: "≥ 3000 nM"
- compound: "C[C@@H]1CN(c2cccc(C3CCc4nc(C(=O)N5CCC(c6ccccc6)C5)cn4C3)n2)C[C@H](C)O1 (stereo partly shown) [Example 311]"
  IC50: "≥ 3000 nM"
- compound: "O=C(N[C@H]1COc2ccc(CC(F)F)cc2C1)c1cc2n(n1)CC(COC(F)(F)F)O2 (single isomer, unassigned) [198 (isomer B)]"
  IC50: "≥ 3000 nM"
- compound: "Cn1cc(-c2ccc3c(c2)C[C@@H](NC(=O)c2cc4n(n2)CC(CCOCC2CC2)O4)CO3)cn1 (stereo partly shown) [Example 460]"
  IC50: "≥ 3000 nM"

Q: Please give measured IC50 of the following entry: O=C(N[C@H]1COc2ccc(Cl)cc2C1)c1cc2n(n1)CCC(C(F)(F)F)O2 (single isomer, unassigned) [170 (isomer B)]
A: < 1000 nM

Q: Could you please provide reported IC50 for O=C(N[C@H]1COc2ccccc2C1)c1nc2n(c1-c1ccccc1)CCN(CC(F)(F)F)C2 [Example 338] ? Thanks!
A: ≥ 3000 nM

Q: Entry CC1(C)CCn2nc(C(=O)N[C@H]3COc4ccc(Cl)cc4C3)cc2O1 [Example 177] needs its IC50 filled in; supply it.
A: 1000 to 3000 nM
